Target: KMT9 (Homo sapiens, UniProt Q9Y5N5)
Sequence (Q9Y5N5 whole entry): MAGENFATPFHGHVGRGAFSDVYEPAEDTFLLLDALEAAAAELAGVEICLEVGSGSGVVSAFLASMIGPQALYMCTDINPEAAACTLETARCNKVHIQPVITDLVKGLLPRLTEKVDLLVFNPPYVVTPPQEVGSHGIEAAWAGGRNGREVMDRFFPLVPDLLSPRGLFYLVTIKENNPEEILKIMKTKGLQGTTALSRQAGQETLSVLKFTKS
Sequence (Q9UI30 1-120 isoform Q9UI30-2 partner): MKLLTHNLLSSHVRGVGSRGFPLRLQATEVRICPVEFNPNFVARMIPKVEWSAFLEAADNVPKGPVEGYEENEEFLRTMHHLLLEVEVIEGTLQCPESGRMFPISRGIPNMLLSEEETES
Assay: Microscale thermophoresis (MST) KMT9 binding
Settings: His-tag labelled KMT9 20 nM; read-out: MST (Kd)
pKd: −log10 of the molar value.
observationType: pKd

As a guide, the following entries are already answered.
Nc1nc(Cl)nc2c1c(-c1nc(Cc3ccccc3)cs1)cn2[C@@H]1C[C@H](C2CCN(Cc3ccco3)CC2)[C@@H](O)[C@H]1O = ≥ 8.00
CN(CCCNCCc1ccc(F)cc1)C[C@H]1C[C@@H](n2cc(-c3nccs3)c3c(N)nc(Cl)nc32)[C@H](O)[C@@H]1O = ≥ 8.00
COc1ccc([C@H]2C[C@@H](n3ccc4c(N)nc(Cl)nc43)[C@H](O)[C@@H]2O)cc1 = 7.00 to 8.00
CN(CCCNCCc1ccc(F)cc1)C[C@H]1C[C@@H](n2cc(-c3ccn(Cc4ccccc4)n3)c3c(N)nc(Cl)nc32)[C@H](O)[C@@H]1O = ≥ 8.00

For this compound ( Nc1nc(Cl)nc2c1c(-c1ccn(S(=O)(=O)c3ccccc3)n1)cn2[C@@H]1C[C@H](C2CCN(CC3CC3)CC2)[C@@H](O)[C@H]1O ), measured pKd is ≥ 8.00

For this compound ( Nc1nc(Cl)nc2c1ccn2[C@@H]1C[C@H](c2cccc(OC(F)F)c2)[C@@H](O)[C@H]1O ), measured pKd is 7.00 to 8.00

For this compound ( CNc1nc(Cl)nc2c1ccn2[C@@H]1C[C@H](c2ccc(O)cc2)[C@@H](O)[C@H]1O ), measured pKd is 7.00 to 8.00

For this compound ( COc1ccc([C@H]2C[C@@H](n3ccc4c(N)nc(Cl)nc43)[C@H](O)[C@@H]2O)cn1 ), measured pKd is 7.00 to 8.00

For this compound ( Nc1nc(Cl)nc2c1ccn2[C@@H]1C[C@H](c2cnn(CCc3ccccc3)c2)[C@@H](O)[C@H]1O ), measured pKd is < 6.00

For this compound ( COc1cccc([C@H]2C[C@@H](n3ccc4c(N)nc(Cl)nc43)[C@H](O)[C@@H]2O)c1 ), measured pKd is ≥ 8.00

For this compound ( Nc1nc(Cl)nc2c1c(-c1nc(Cc3ccccc3)cs1)cn2[C@@H]1C[C@H](C2CCN(CC(F)F)CC2)[C@@H](O)[C@H]1O ), measured pKd is 6.00 to 7.00

For this compound ( Nc1nc(Cl)nc2c1c(-c1nc(Cc3ccccc3)cs1)cn2[C@@H]1C[C@H](C2CCN(CC3CCCC3)CC2)[C@@H](O)[C@H]1O ), measured pKd is 6.00 to 7.00

For this compound ( Cn1cc([C@H]2C[C@@H](n3ccc4c(N)nc(Cl)nc43)[C@H](O)[C@@H]2O)cn1 ), measured pKd is 6.00 to 7.00

For this compound ( Nc1nc(Cl)nc2c1ccn2[C@@H]1C[C@H](c2cc[nH]c(=O)c2)[C@@H](O)[C@H]1O ), measured pKd is 6.00 to 7.00

Attribution: patent US20250188110A1
